- ASSAY_PROTOCOL: Single dose pharmacokinetic study in cynomolgus monkey
- Assay type: in vivo
- SETTINGS: male, cynomolgus monkey, plasma, po, 5 mg/kg, non-human primate, po 5 mg/kg, 0.25 hr; read-out: Plasma level, Individual animals
RECORDED_ENDPOINT: concentration at 0.25 hr (ng/mL)
Please reply with the bare figure in ng/mL and do not write the unit itself.

Incoming: Would you mind telling me what concentration at 0.25 hr value was observed for Cc1cc(C(=O)O)nc(N2C[C@H]3C[C@@H](c4ccccc4C(F)(F)F)C[C@H]3C2)n1 [BPN-14136] ?
Outgoing: 9720

---

- ASSAY_PROTOCOL: Single dose pharmacokinetic study in beagle dog
- Type: in vivo
- SETTINGS: male, beagle, dog, plasma, po, 2 mg/kg, male beagle dog, po 2 mg/kg, 12 hr; read-out: Plasma level, Individual animals
RECORDED_ENDPOINT: concentration at 12 h (ng/mL)
Please reply with the bare figure in ng/mL and do not write the unit itself.

Incoming: Would you mind telling me what concentration at 12 h value was observed for Cc1cc(C(=O)O)nc(N2C[C@H]3C[C@@H](c4ccccc4C(F)(F)F)C[C@H]3C2)n1 ?
Outgoing: 453

---

- ASSAY_PROTOCOL: Single dose pharmacokinetic study in cynomolgus monkey
- Assay type: in vivo
- SETTINGS: male, cynomolgus monkey, plasma, iv, 1 mg/kg, non-human primate, iv 1.0 mg/kg, 48 hr; read-out: Plasma level, Mean
RECORDED_ENDPOINT: concentration at 48 hr (ng/mL)
Please reply with the bare figure in ng/mL and do not write the unit itself.

Incoming: Would you mind telling me what concentration at 48 hr value was observed for Cc1cc(C(=O)O)nc(N2C[C@H]3C[C@@H](c4ccccc4C(F)(F)F)C[C@H]3C2)n1 ?
Outgoing: 1050

---

- ASSAY_PROTOCOL: Single dose pharmacokinetic study in cynomolgus monkey
- Type: in vivo
- SETTINGS: male, cynomolgus monkey, plasma, iv, 1 mg/kg, non-human primate, iv 1.0 mg/kg, 1 hr; read-out: Plasma level, Individual animals
RECORDED_ENDPOINT: concentration at 1 hr (ng/mL)
Please reply with the bare figure in ng/mL and do not write the unit itself.

Incoming: Would you mind telling me what concentration at 1 hr value was observed for Cc1cc(C(=O)O)nc(N2C[C@H]3C[C@@H](c4ccccc4C(F)(F)F)C[C@H]3C2)n1 ?
Outgoing: 9470

---

- ASSAY_PROTOCOL: Single dose pharmacokinetic study in beagle dog
- Assay type: in vivo
- SETTINGS: male, beagle, dog, plasma, iv, 0.5 mg/kg, male beagle dog, iv 0.5 mg/kg, 6 hr; read-out: Plasma level, Mean
RECORDED_ENDPOINT: concentration at 6 h (ng/mL)
Please reply with the bare figure in ng/mL and do not write the unit itself.

Incoming: Would you mind telling me what concentration at 6 h value was observed for Cc1cc(C(=O)O)nc(N2C[C@H]3C[C@@H](c4ccccc4C(F)(F)F)C[C@H]3C2)n1 ?
Outgoing: 291

---

- ASSAY_PROTOCOL: Single dose pharmacokinetic study in beagle dog
- Type: in vivo
- SETTINGS: male, beagle, plasma, iv; Dog, 0.5 mg kg^−1 i.v., mean ± SD, n=3; read-out: Cmax, maximum observed concentration at first time point
RECORDED_ENDPOINT: Cmax (ng/mL)
Please reply with the bare figure in ng/mL and do not write the unit itself.

Incoming: Would you mind telling me what Cmax value was observed for Cc1cc(C(=O)O)nc(N2C[C@H]3C[C@@H](c4ccccc4C(F)(F)F)C[C@H]3C2)n1 ?
Outgoing: 2700
